tested-system: Platelet-activating factor receptor (Homo sapiens, UniProt P25105)
Sequence (P25105 whole entry): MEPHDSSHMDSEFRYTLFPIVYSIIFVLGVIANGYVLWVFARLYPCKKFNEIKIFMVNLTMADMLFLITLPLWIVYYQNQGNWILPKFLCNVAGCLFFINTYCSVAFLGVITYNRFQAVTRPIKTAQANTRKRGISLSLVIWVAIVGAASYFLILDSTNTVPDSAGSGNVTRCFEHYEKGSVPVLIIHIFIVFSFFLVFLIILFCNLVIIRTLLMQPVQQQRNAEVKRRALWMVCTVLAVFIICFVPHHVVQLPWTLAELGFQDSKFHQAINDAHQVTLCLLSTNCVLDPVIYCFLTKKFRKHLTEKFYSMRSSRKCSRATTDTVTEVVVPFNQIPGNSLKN
method-summary: In vitro inhibition of [3H]-C18 PAF binding to human platelet membrane Platelet activating factor receptor.
Set-up: concentration or dose not given beside the values
experimental-conditions: concentration not given here
recorded-metric: inhibition (%)
Respond numerically; units are % and should not be typed.

What inhibition value was documented for this compound, CCCS(=O)(=O)c1cc(C2CC[C@@H](c3cc(OC)c(OC)c(OC)c3)O2)cc(OC)c1OCCSc1ccccc1 (stereo not given in full) ?
93

Continuing:
What inhibition value was documented for this compound, CCCS(=O)(=O)c1cc(C2CC[C@@H](c3cc(OC)c(OC)c(OC)c3)O2)cc(OC)c1OCC[S+]([O-])c1ccc(C#N)cc1 (stereo not given in full) ?
74

What inhibition value was documented for this compound, CCCS(=O)(=O)c1cc(C2CC[C@@H](c3cc(OC)c(OC)c(OC)c3)O2)cc(OC)c1OCCSc1ccncc1 (stereo not given in full) ?
73

What inhibition value was documented for this compound, CCCS(=O)(=O)c1cc(C2CC[C@@H](c3cc(OC)c(OC)c(OC)c3)O2)cc(OC)c1OCCS(=O)(=O)c1ccccc1 (stereo not given in full) ?
72

What inhibition value was documented for this compound, CCCS(=O)(=O)c1cc(C2CC[C@@H](c3cc(OC)c(OC)c(OC)c3)O2)cc(OC)c1OCC[S+]([O-])c1ccc(O)cc1 (stereo not given in full) ?
73

What inhibition value was documented for this compound, CCCS(=O)(=O)c1cc(C2CC[C@@H](c3cc(OC)c(OC)c(OC)c3)O2)cc(OC)c1OCCSc1ccccc1N (stereo not given in full) ?
57

What inhibition value was documented for this compound, CCCS(=O)(=O)c1cc(C2CC[C@@H](c3cc(OC)c(OC)c(OC)c3)O2)cc(OC)c1OCCSc1ccc(N(C)C)cc1 (stereo not given in full) ?
66

What inhibition value was documented for this compound, CCCS(=O)(=O)c1cc(C2CC[C@@H](c3cc(OC)c(OC)c(OC)c3)O2)cc(OC)c1OCCSc1ccc(C(N)=O)cc1 (stereo not given in full) ?
70

What inhibition value was documented for this compound, CCCS(=O)(=O)c1cc(C2CC[C@@H](c3cc(OC)c(OC)c(OC)c3)O2)cc(OC)c1OCCS(=O)(=O)c1ccncc1 (stereo not given in full) ?
45

What inhibition value was documented for this compound, CCCS(=O)(=O)c1cc(C2CC[C@@H](c3cc(OC)c(OC)c(OC)c3)O2)cc(OC)c1OCCSc1ccc(O)cc1 (stereo not given in full) ?
100

What inhibition value was documented for this compound, CCCS(=O)(=O)c1cc(C2CC[C@@H](c3cc(OC)c(OC)c(OC)c3)O2)cc(OC)c1OCC[S+]([O-])c1ccc(N)cc1 (stereo not given in full) ?
0

What inhibition value was documented for this compound, CCCS(=O)(=O)c1cc(C2CC[C@@H](c3cc(OC)c(OC)c(OC)c3)O2)cc(OC)c1OCCSc1cccc(N)c1 (stereo not given in full) ?
80

What inhibition value was documented for this compound, CCCS(=O)(=O)c1cc(C2CC[C@@H](c3cc(OC)c(OC)c(OC)c3)O2)cc(OC)c1OCCS(=O)(=O)c1ccc(N)cc1 (stereo not given in full) ?
41

What inhibition value was documented for this compound, CCCS(=O)(=O)c1cc(C2CC[C@@H](c3cc(OC)c(OC)c(OC)c3)O2)cc(OC)c1OCCSc1ccc(C#N)cc1 (stereo not given in full) ?
93

What inhibition value was documented for this compound, CCCS(=O)(=O)c1cc(C2CC[C@@H](c3cc(OC)c(OC)c(OC)c3)O2)cc(OC)c1OCCSc1ccc(C(=O)O)cc1 (stereo not given in full) ?
38

###

Test system: Rattus norvegicus
method-summary: In vivo inhibition of 10 nmole/kg PAF-induced hemoconcentration was determined at 1 mg/kg peroral administration in rats
Type: functional
experimental-conditions: route oral
Listed here: items and their measured inhibition in vivo at 1 mg/kg.
Kindly write the number and append the unit.

Some entries whose results are on file:
What inhibition in vivo at 1 mg/kg value was documented for this compound, CCCS(=O)(=O)c1cc(C2CC[C@@H](c3cc(OC)c(OC)c(OC)c3)O2)cc(OC)c1OCC[S+]([O-])c1ccc(O)cc1 (some centres undefined) ?
25%

What inhibition in vivo at 1 mg/kg value was documented for this compound, CCCS(=O)(=O)c1cc(C2CC[C@@H](c3cc(OC)c(OC)c(OC)c3)O2)cc(OC)c1OCCSc1cccc(N)c1 (some centres undefined) ?
7%

What inhibition in vivo at 1 mg/kg value was documented for this compound, CCCS(=O)(=O)c1cc(C2CC[C@@H](c3cc(OC)c(OC)c(OC)c3)O2)cc(OC)c1OCCSc1ccc(N)cc1 (some centres undefined) ?
56%

# evaluate next
What inhibition in vivo at 1 mg/kg value was documented for this compound, CCCS(=O)(=O)c1cc(C2CC[C@@H](c3cc(OC)c(OC)c(OC)c3)O2)cc(OC)c1OCCS(=O)(=O)c1ccc(O)cc1 (some centres undefined) ?
7%

###

tested-system: Platelet-activating factor receptor (Rattus norvegicus)
method-summary: In vivo inhibition of 10 nmole/kg PAF-induced plasma N-acetyl-beta-glucosaminidase (NAGA) after oral administration to rats
Type: organism-based
Design: concentration or dose not given beside the values
Listed here: items and their measured inhibition.
Respond numerically; units are % and should not be typed.

Entry CCCS(=O)(=O)c1cc(C2CC[C@@H](c3cc(OC)c(OC)c(OC)c3)O2)cc(OC)c1OCCSc1ccccc1 (stereo partly drawn) , system Platelet-activating factor receptor (Rattus norvegicus): what inhibition was measured?
84

Entry CCCS(=O)(=O)c1cc(C2CC[C@@H](c3cc(OC)c(OC)c(OC)c3)O2)cc(OC)c1OCCSc1ccc(N)cc1 (stereo partly drawn) , system Platelet-activating factor receptor (Rattus norvegicus): what inhibition was measured?
58

# evaluate next
Entry CCCS(=O)(=O)c1cc(C2CC[C@@H](c3cc(OC)c(OC)c(OC)c3)O2)cc(OC)c1OCCSc1ccc(C#N)cc1 (stereo partly drawn) , system Platelet-activating factor receptor (Rattus norvegicus): what inhibition was measured?
39

###

tested-system: Platelet-activating factor receptor (Rattus norvegicus)
method-summary: In vivo inhibition of 10 nmole/kg PAF-induced plasma N-acetyl-beta-glucosaminidase (NAGA) after oral administration to rats
Assay type: organism-based
Parameters: concentration or dose not given beside the values
Answer false if inhibition is under 30%, and true if it is 30% or more.

Solved entries:
Please indicate if the recorded inhibition for CCCS(=O)(=O)c1cc(C2CC[C@@H](c3cc(OC)c(OC)c(OC)c3)O2)cc(OC)c1OCCSc1cccc(O)c1 (some centres not stated) meets or exceeds 30%.
false

Please indicate if the recorded inhibition for CCCS(=O)(=O)c1cc(C2CC[C@@H](c3cc(OC)c(OC)c(OC)c3)O2)cc(OC)c1OCCS(=O)(=O)c1ccc(O)cc1 (some centres not stated) meets or exceeds 30%.
false

Please indicate if the recorded inhibition for CCCS(=O)(=O)c1cc(C2CC[C@@H](c3cc(OC)c(OC)c(OC)c3)O2)cc(OC)c1OCCS(=O)(=O)c1ccc(C#N)cc1 (some centres not stated) meets or exceeds 30%.
false

Please indicate if the recorded inhibition for CCCS(=O)(=O)c1cc(C2CC[C@@H](c3cc(OC)c(OC)c(OC)c3)O2)cc(OC)c1OCC[S+]([O-])c1ccc(O)cc1 (some centres not stated) meets or exceeds 30%.
true

Please indicate if the recorded inhibition for CCCS(=O)(=O)c1cc(C2CC[C@@H](c3cc(OC)c(OC)c(OC)c3)O2)cc(OC)c1OCCS(=O)(=O)c1ccccc1 (some centres not stated) meets or exceeds 30%.
true

Continuing:
Please indicate if the recorded inhibition for CCCS(=O)(=O)c1cc(C2CC[C@@H](c3cc(OC)c(OC)c(OC)c3)O2)cc(OC)c1OCC[S+]([O-])c1ccc(C#N)cc1 (some centres not stated) meets or exceeds 30%.
false

Please indicate if the recorded inhibition for CCCS(=O)(=O)c1cc(C2CC[C@@H](c3cc(OC)c(OC)c(OC)c3)O2)cc(OC)c1OCCS(=O)(=O)c1ccncc1 (some centres not stated) meets or exceeds 30%.
false

###

tested-system: UniProt P46002
Sequence (P46002 whole entry): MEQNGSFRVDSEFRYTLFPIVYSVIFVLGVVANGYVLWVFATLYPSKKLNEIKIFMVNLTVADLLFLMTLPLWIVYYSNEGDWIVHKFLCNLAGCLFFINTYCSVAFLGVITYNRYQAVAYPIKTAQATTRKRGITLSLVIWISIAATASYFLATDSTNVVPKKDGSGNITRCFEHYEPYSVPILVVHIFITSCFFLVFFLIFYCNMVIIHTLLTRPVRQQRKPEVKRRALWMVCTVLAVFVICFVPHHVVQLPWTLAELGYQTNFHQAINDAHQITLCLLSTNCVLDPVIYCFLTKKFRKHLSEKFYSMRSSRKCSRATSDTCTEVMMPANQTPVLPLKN
method-summary: In vivo inhibition of 10 nmole/kg PAF-induced hemoconcentration was determined at 1 mg/kg peroral administration
Assay type: functional, organism-based
Design: dose 1 mg/kg
recorded-metric: inhibition
Kindly write the number and append the unit.

Some entries whose results are on file:
What inhibition value was documented for this molecule, CCCS(=O)(=O)c1cc(C2CC[C@@H](c3cc(OC)c(OC)c(OC)c3)O2)cc(OC)c1OCC[S+]([O-])c1ccc(C#N)cc1 (stereo partly drawn) ?
5%

What inhibition value was documented for this molecule, CCCS(=O)(=O)c1cc(C2CC[C@@H](c3cc(OC)c(OC)c(OC)c3)O2)cc(OC)c1OCCSc1ccc(O)cc1 (stereo partly drawn) ?
63%

What inhibition value was documented for this molecule, CCCS(=O)(=O)c1cc(C2CC[C@@H](c3cc(OC)c(OC)c(OC)c3)O2)cc(OC)c1OCCSc1ccc(N(C)C)cc1 (stereo partly drawn) ?
66%

What inhibition value was documented for this molecule, CCCS(=O)(=O)c1cc(C2CC[C@@H](c3cc(OC)c(OC)c(OC)c3)O2)cc(OC)c1OCCS(=O)(=O)c1ccncc1 (stereo partly drawn) ?
0%

What inhibition value was documented for this molecule, CCCS(=O)(=O)c1cc(C2CC[C@@H](c3cc(OC)c(OC)c(OC)c3)O2)cc(OC)c1OCCS(=O)(=O)c1ccccc1 (stereo partly drawn) ?
94%

What inhibition value was documented for this molecule, CCCS(=O)(=O)c1cc(C2CC[C@@H](c3cc(OC)c(OC)c(OC)c3)O2)cc(OC)c1OCCSc1ccc(C#N)cc1 (stereo partly drawn) ?
33%

What inhibition value was documented for this molecule, CCCS(=O)(=O)c1cc(C2CC[C@@H](c3cc(OC)c(OC)c(OC)c3)O2)cc(OC)c1OCCSc1ccc(C(=O)O)cc1 (stereo partly drawn) ?
11%

What inhibition value was documented for this molecule, CCCS(=O)(=O)c1cc(C2CC[C@@H](c3cc(OC)c(OC)c(OC)c3)O2)cc(OC)c1OCCSc1ccncc1 (stereo partly drawn) ?
15%

Continuing:
What inhibition value was documented for this molecule, CCCS(=O)(=O)c1cc(C2CC[C@@H](c3cc(OC)c(OC)c(OC)c3)O2)cc(OC)c1OCCSc1cccc(O)c1 (stereo partly drawn) ?
27%

What inhibition value was documented for this molecule, CCCS(=O)(=O)c1cc(C2CC[C@@H](c3cc(OC)c(OC)c(OC)c3)O2)cc(OC)c1OCCSc1ncc[nH]1 (stereo partly drawn) ?
11%

What inhibition value was documented for this molecule, CCCS(=O)(=O)c1cc(C2CC[C@@H](c3cc(OC)c(OC)c(OC)c3)O2)cc(OC)c1OCCSc1ccccc1 (stereo partly drawn) ?
95%

What inhibition value was documented for this molecule, CCCS(=O)(=O)c1cc(C2CC[C@@H](c3cc(OC)c(OC)c(OC)c3)O2)cc(OC)c1OCCS(=O)(=O)c1ccc(C#N)cc1 (stereo partly drawn) ?
0%

What inhibition value was documented for this molecule, CCCS(=O)(=O)c1cc(C2CC[C@@H](c3cc(OC)c(OC)c(OC)c3)O2)cc(OC)c1OCCSc1ccc(C(N)=O)cc1 (stereo partly drawn) ?
26%

# credit: ChEMBL document CHEMBL1126400
